Molecular target: T1, recombinant biotinylated human PAR2 extracellular domain (residues 1-75), N-terminal AviTag, C-terminal Flag … (human, UniProt P55085 26-75, biotin on the AviTag (enzymatic biotinylation))
T1 construct: also called Bio-human-PAR2 ECD; human PAR2 ECD; not shown: N-terminal AviTag (Avidity LLC); C-terminal Flag and poly Histidine tags
T1 sequence (P55085 26-75): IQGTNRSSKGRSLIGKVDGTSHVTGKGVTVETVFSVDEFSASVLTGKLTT
Assay: HTRF competition with Par0067 IgG, pH 7.4, scFv
Description: 5 μl/well of the appropriate pH 4.44 nM Par0067 IgG solution was added to all wells of the relevant assay plate (pH 7.4 and pH 6.0). […] For multipoint dose response curves % Specific Binding values were plotted versus test purified antibody concentration (scFv or IgG). IC₅₀ values were determined via a sigmoidal dose response inhibition variable slope curve fit (4 parameter logistic equation) using Graphpad Prism Software.
pIC50: −log10 of the molar value.
Label fulfilled when pIC50 >= 8; otherwise not fulfilled.

input: Evaluate PaB670089 scFv (scFv, V domains shown, purified scFv; also called ZZ1ODR-C05) VH: EVQLLESGGGLVQPGGSLRLSCAASGFTFSSYAMNWVRQAPGKGLEWVSTISYHGSHISHADHVHGRFTISRDNSKNTLYLQMNSLRAEDTAVYYCARINNDPMDVWGQGTLVTVSS VL: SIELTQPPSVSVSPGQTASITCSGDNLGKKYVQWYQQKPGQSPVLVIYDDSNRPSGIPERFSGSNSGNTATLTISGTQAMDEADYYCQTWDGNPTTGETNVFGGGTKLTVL : pIC50 at minimum 8?
output: not fulfilled

input: Evaluate Par0067 scFv (scFv, V domains shown, purified scFv, parent clone; also called ZZ15D2-D02) VH: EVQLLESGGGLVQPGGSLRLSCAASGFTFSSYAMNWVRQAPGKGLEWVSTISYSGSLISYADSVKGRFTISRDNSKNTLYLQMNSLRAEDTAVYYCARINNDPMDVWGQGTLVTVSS VL: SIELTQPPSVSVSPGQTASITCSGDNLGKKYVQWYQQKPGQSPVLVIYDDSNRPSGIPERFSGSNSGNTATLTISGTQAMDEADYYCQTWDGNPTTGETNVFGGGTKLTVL : pIC50 at minimum 8?
output: fulfilled

input: Evaluate PaB670034 scFv (scFv, V domains shown, purified scFv; also called ZZ1IGF-B11) VH: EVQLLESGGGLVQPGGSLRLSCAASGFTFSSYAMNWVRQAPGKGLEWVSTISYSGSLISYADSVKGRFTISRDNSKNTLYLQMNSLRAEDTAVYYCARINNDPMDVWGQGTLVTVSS VL: SIELTQPPSVSVSPGQTASITCSGDNLGKKYVQWYQQKPGQSPVLVIYDDSNRPSGIPERFSGSNSGNTATLTISGTQAMDEADYYCQTWDGNPTHGETNVFGGGTKLTVL : pIC50 at minimum 8?
output: fulfilled

input: Evaluate PaB670095 scFv (scFv, V domains shown, purified scFv; also called ZZ1ODS-H05) VH: EVQLLESGGGLVQPGGSLRLSCAASGFTFSSYAMNWVRQAPGKGLEWVSTISYHGHHISYADSHHHRFTISRDNSKNTLYLQMNSLRAEDTAVYYCARINNDPMDVWGQGTLVTVSS VL: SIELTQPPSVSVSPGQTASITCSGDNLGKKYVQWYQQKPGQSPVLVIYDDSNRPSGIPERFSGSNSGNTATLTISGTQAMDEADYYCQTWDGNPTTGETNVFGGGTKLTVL : pIC50 at minimum 8?
output: not fulfilled

input: Evaluate PaB670083 scFv (scFv, V domains shown, purified scFv; also called ZZ1OZB-H05) VH: EVQLLESGGGLVQPGGSLRLSCAASGFTFSSYAMNWVRQAPGKGLEWVSTIHHSGHLHSHADHVKGRFTISRDNSKNTLYLQMNSLRAEDTAVYYCARINNDPMDVWGQGTLVTVSS VL: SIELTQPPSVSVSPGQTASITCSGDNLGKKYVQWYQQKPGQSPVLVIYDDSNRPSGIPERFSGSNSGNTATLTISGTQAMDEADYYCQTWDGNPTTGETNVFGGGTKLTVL : pIC50 at minimum 8?
output: not fulfilled
